# STUDY SYSTEM: T1, orthogonal hCD122 receptor (hoRb), hCD122 with H133D and Y134F (human, UniProt P14784 27-550)
# T1 sequence: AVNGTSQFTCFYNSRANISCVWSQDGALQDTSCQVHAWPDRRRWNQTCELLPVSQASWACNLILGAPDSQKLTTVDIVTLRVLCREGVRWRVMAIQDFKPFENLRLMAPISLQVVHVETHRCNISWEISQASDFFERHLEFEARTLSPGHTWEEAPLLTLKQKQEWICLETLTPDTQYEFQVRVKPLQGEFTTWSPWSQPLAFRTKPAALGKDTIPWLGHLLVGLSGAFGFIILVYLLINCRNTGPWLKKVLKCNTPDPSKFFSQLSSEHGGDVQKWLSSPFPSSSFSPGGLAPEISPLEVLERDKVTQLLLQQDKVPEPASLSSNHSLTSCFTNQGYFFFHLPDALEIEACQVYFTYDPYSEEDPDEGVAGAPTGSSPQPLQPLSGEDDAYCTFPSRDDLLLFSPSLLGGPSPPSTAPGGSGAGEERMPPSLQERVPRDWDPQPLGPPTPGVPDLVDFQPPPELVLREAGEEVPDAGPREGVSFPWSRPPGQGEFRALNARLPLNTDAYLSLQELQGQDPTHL
# EXPERIMENT SUMMARY: cell-based or functional assay
OUTCOME MEASURE: NKL Ortho Proliferation Signal 1:50
The answer should be written as a number, with no unit following it.

Below, 6 binders whose answers are already recorded.
- BINDER: "G27S, SQVLKA (ligand) APTSSSTKKTQLQLSQLLVLLKAILNSINNYKNPKLTRMLTFKFYMPKKATELKHLQCLEEELKPLEEVLNLAQSKNFHLRPRDLISNINVIVLELKGSETTFMCEYADETATIVEFLNRWITFCQSIISTLT"
  OUTCOME MEASURE: "NKL Ortho Proliferation Signal 1:50"
  VALUE MEASURED: 20700
- BINDER: "M39L, SQVLKA (ligand) APTSSSTKKTQLQLSQLLVLLKAILNGINNYKNPKLTRLLTFKFYMPKKATELKHLQCLEEELKPLEEVLNLAQSKNFHLRPRDLISNINVIVLELKGSETTFMCEYADETATIVEFLNRWITFCQSIISTLT"
  OUTCOME MEASURE: "NKL Ortho Proliferation Signal 1:50"
  VALUE MEASURED: 21800
- BINDER: "SQVLKQ (ligand) APTSSSTKKTQLQLSQLLVLLKQILNGINNYKNPKLTRMLTFKFYMPKKATELKHLQCLEEELKPLEEVLNLAQSKNFHLRPRDLISNINVIVLELKGSETTFMCEYADETATIVEFLNRWITFCQSIISTLT"
  OUTCOME MEASURE: "NKL Ortho Proliferation Signal 1:50"
  VALUE MEASURED: 49600
- BINDER: "Q74S, SQVLKA (ligand) APTSSSTKKTQLQLSQLLVLLKAILNGINNYKNPKLTRMLTFKFYMPKKATELKHLQCLEEELKPLEEVLNLASSKNFHLRPRDLISNINVIVLELKGSETTFMCEYADETATIVEFLNRWITFCQSIISTLT"
  OUTCOME MEASURE: "NKL Ortho Proliferation Signal 1:50"
  VALUE MEASURED: 35000
- BINDER: "L80V, SQVLKA (ligand) APTSSSTKKTQLQLSQLLVLLKAILNGINNYKNPKLTRMLTFKFYMPKKATELKHLQCLEEELKPLEEVLNLAQSKNFHVRPRDLISNINVIVLELKGSETTFMCEYADETATIVEFLNRWITFCQSIISTLT"
  OUTCOME MEASURE: "NKL Ortho Proliferation Signal 1:50"
  VALUE MEASURED: 24300
- BINDER: "R38G, SQVLKA (ligand) APTSSSTKKTQLQLSQLLVLLKAILNGINNYKNPKLTGMLTFKFYMPKKATELKHLQCLEEELKPLEEVLNLAQSKNFHLRPRDLISNINVIVLELKGSETTFMCEYADETATIVEFLNRWITFCQSIISTLT"
  OUTCOME MEASURE: "NKL Ortho Proliferation Signal 1:50"
  VALUE MEASURED: 9740

Moving on to another binder below.
State, in one line, measured NKL Ortho Proliferation Signal 1:50 of L18K, SQVLKA (ligand) APTSSSTKKTQLQLSQLKVLLKAILNGINNYKNPKLTRMLTFKFYMPKKATELKHLQCLEEELKPLEEVLNLAQSKNFHLRPRDLISNINVIVLELKGSETTFMCEYADETATIVEFLNRWITFCQSIISTLT 11500
